- assay-system: Nuclear receptor subfamily 4immunitygroup A member 1 (Homo sapiens, UniProt P22736)
- Sequence (P22736 whole entry, the tested form may be a part): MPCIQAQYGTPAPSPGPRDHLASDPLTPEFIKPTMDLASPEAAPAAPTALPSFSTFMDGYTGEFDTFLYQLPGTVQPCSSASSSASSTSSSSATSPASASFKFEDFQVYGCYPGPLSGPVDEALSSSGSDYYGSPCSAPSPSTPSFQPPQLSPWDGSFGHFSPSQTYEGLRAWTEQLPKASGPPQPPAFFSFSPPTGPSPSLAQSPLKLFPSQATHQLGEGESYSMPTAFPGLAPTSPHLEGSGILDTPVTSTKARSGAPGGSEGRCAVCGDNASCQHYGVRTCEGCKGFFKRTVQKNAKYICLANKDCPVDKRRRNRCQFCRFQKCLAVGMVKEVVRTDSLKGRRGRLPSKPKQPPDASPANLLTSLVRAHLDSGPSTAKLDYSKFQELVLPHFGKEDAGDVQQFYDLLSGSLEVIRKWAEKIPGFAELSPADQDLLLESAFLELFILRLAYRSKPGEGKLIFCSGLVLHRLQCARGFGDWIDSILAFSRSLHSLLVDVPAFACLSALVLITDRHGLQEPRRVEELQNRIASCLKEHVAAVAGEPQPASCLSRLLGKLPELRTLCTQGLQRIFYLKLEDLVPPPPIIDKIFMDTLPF
- experiment-summary: Binding affinity to NuR77-LBD receptor expressed in human BGC823 cells
- Assay type: cell-based, BGC-823
reported-metric: Kd (µM)
Write the value in µM as a bare number.

Requested field: Kd. Item: CCCCCCCC(=O)c1c(O)cc(O)cc1CC(=O)OCC 1.51

====

- assay-system: Nuclear receptor subfamily 4immunitygroup A member 1 (Homo sapiens, UniProt P22736, Y453A)
- Sequence (P22736 whole entry Y453A): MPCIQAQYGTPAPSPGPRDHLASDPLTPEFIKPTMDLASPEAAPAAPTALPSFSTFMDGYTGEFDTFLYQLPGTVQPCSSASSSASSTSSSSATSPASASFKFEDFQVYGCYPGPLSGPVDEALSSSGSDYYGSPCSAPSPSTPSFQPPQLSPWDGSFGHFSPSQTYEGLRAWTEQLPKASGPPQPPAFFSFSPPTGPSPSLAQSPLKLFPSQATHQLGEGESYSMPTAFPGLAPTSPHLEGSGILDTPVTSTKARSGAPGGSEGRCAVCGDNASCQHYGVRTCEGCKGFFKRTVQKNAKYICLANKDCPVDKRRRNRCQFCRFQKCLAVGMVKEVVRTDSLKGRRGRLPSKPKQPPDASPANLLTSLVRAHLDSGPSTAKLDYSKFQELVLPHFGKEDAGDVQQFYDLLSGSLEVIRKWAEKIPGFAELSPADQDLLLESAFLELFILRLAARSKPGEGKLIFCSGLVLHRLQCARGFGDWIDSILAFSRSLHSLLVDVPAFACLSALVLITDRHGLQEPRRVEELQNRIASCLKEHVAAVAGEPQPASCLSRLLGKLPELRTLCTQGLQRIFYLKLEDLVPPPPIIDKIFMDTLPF
- experiment-summary: Binding affinity to Nur77 Y453A mutant expressed in human BGC823 cells
reported-metric: Kd
I'd appreciate it if you included the unit after the number.

Requested field: Kd. Item: CC1=C(/C=C/C(C)=C\C=C\C(C)=C\C(=O)O)C(C)(C)CCC1 [ALITRETINOIN] 810 nM

====

- assay-system: Nuclear receptor subfamily 4immunitygroup A member 1 (Homo sapiens)
- experiment-summary: Agonist activity at nuclear orphan receptor Nur77 expressed in human BGC823 cells co-transfected with fused GAL4-LBD assessed as transactivation after 12 hrs by luciferase reporter gene assay
- Type: functional, cell-based, BGC-823
reported-metric: EC50
I'd appreciate it if you included the unit after the number.

Recorded EC50 for CCCCCCCC(=O)c1c(O)cc(O)cc1CC(=O)OCC [CYTOSPORONE B] with Nuclear receptor subfamily 4immunitygroup A member 1 (Homo sapiens), please? 0.115 nM
